Before we begin, note that these IC50 values for MAPK1(ERK2) enzyme (Homo sapiens, UniProt P28482) originate from several publications.

Please review the following examples before continuing.
Compound structure string | Recorded value
COC[C@H]1Cn2cc(-c3nc(Nc4ccnn4C)ncc3C)nc2-c2nnc(C(F)(F)c3ccccc3F)n21 | ≤ 5 nM
Cn1nccc1Nc1cc(-c2cc3n(c2)CC2(CCC2)Cn2c-3nnc2C(F)(F)C(F)F)c(Cl)cn1 | 5 to 10 nM
Cn1nccc1Nc1nccc(-c2cn3c(c2F)-c2nnc(C4(C(F)(F)F)CCC4)n2CCC3)n1 | ≤ 5 nM
Cc1cc(-c2n[nH]c3cc4[nH]c(=O)c([C@H](C)c5ccc(F)cc5)cc4cc23)ccn1 | < 500 nM
Cc1cnc(Nc2ccnn2C)cc1-c1cc2n(c1)[C@@H]1CC[C@@H](C1)n1c-2nnc1C(F)(F)C(F)F | ≤ 5 nM

Per the reported MAPK1(ERK2) enzyme (Homo sapiens, UniProt P28482) data, Cn1nccc1Nc1ncc(F)c(-c2cc3n(c2)C[C@H](CF)n2c-3nnc2C(F)(F)c2ccccc2F)n1 has IC50 of 5 to 10 nM

Per the reported MAPK1(ERK2) enzyme (Homo sapiens, UniProt P28482) data, CCN(C(C)=O)C(=O)Nc1ccc2ncc(-c3ccccc3)nc2n1 has IC50 of 9500 nM
